Value source: patent US20120329738A1

Test: in vitro
Details: human, Caco-2
Assay readout: Papp A→B at 2 h, 10 μM (×10⁻⁶ cm/s)

I: CC(=O)CC(c1ccccc1)c1c(O)c2ccccc2oc1=O (centres unmarked) [Warfarin, warfarin]
II: CNC(=C[N+](=O)[O-])NCCSCc1ccc(CN(C)C)o1 [Ranitidine]
Problem: For the pair I and II , which entry has the numerically smaller recorded Papp A→B at 2 h, 10 μM? Output the label that corresponds to your choice.
Result: II

---

Assay: physchem
Conditions: 25 °C, aqueous with cosolvent or surfactant or cyclodextrin, thermodynamic from solid
Assay readout: solubility (mg/mL)
Give the number; mg/mL is assumed, so skip it.

Problem: Quote solubility reported for `C=C1CC[C@H](O)C/C1=C/C=C1\CCC[C@]2(C)[C@@H]([C@H](C)CCCC(C)C)CC[C@@H]12` please.
Result: 4.5

---

Assay: Solubility in water without solubilizer
Format: physicochemical
Conditions: 25° C.
Assay readout: solubility

Problem: Give the measured solubility for C=C1C[C@@]23CC[C@H]4[C@@](C)(CCC[C@@]4(C)C(=O)O[C@@H]4O[C@H](CO)[C@@H](O)[C@H](O)[C@H]4O)[C@@H]2CC[C@]1(O[C@@H]1O[C@H](CO)[C@@H](O)[C@H](O)[C@H]1O)C3 [Rubusoside]
Result: ~400 mg/mL

---

Test: in vitro
Conditions: human, Caco-2
Description: Human epithelial colorectal adenocarcinoma cell line (Caco-2) was obtained from the American Type Culture Collection (ATCC), and cultured according to directions. […] For Apical to Basolateral (A->B) permeability, the test agent (1 mg/mL)+probe substrate were added to the apical (A) side, test agent was added to the Basolateral (B) side, and amount of permeation was determined on the B side. […] From bidirectional permeability studies, the efflux ration (RE) is also calculated: […]
Assay readout: Papp A→B at 2 h, 5 μM (×10⁻⁶ cm/s)
A number alone suffices; assume ×10⁻⁶ cm/s.

Problem: Give Papp A→B at 2 h, 5 μM for `C[C@H]1O[C@@H](O[C@H]2[C@@H](O)C[C@H](O[C@H]3[C@@H](O)C[C@H](O[C@H]4CC[C@@]5(C)[C@H](CC[C@@H]6[C@@H]5C[C@@H](O)[C@]5(C)[C@@H](C7=CC(=O)OC7)CC[C@]65O)C4)O[C@@H]3C)O[C@@H]2C)C[C@H](O)[C@@H]1O`
Result: 1.4

---

Assay: in vitro
Details: human, Caco-2
Assay readout: Papp B→A at 2 h, 5 μM (×10⁻⁶ cm/s)
Numbers only; they are read as ×10⁻⁶ cm/s.

Problem: Please indicate Papp B→A at 2 h, 5 μM recorded for C[C@H]1O[C@@H](O[C@H]2[C@@H](O)C[C@H](O[C@H]3[C@@H](O)C[C@H](O[C@H]4CC[C@@]5(C)[C@H](CC[C@@H]6[C@@H]5C[C@@H](O)[C@]5(C)[C@@H](C7=CC(=O)OC7)CC[C@]65O)C4)O[C@@H]3C)O[C@@H]2C)C[C@H](O)[C@@H]1O [Digoxin, digoxin]
Result: 18.7
